Origin of measurements: ChEMBL document CHEMBL1153083

Experiment: Selectivity index, ratio of TC50 for african green monkey (Cercopithecus aethiops) Vero cells to IC50 for Plasmodium falciparum W2
Format: toxicity, cell-based
selectivity ratio for assorted compounds
VALUE KIND: selectivity ratio

COMPOUND: CC1=CO[C@@H]2O[C@]3(C)CC[C@H]4[C@H](C)CC[C@@H]1[C@@]24OO3 [ANHYDRODIHYDROARTEMISININ]
VALUE: > 70

COMPOUND: C[C@H]1[C@@H](OCC(=O)CO[C@H]2O[C@@H]3O[C@@]4(C)CC[C@H]5[C@H](C)CC[C@@H]([C@H]2C)[C@@]35OO4)O[C@@H]2O[C@@]3(C)CC[C@H]4[C@H](C)CC[C@@H]1[C@@]24OO3
VALUE: 44

COMPOUND: C[C@H]1[C@@H](OC[C@@H]2O[C@@H]2CO[C@H]2O[C@@H]3O[C@@]4(C)CC[C@H]5[C@H](C)CC[C@@H]([C@H]2C)[C@@]35OO4)O[C@@H]2O[C@@]3(C)CC[C@H]4[C@H](C)CC[C@@H]1[C@@]24OO3 (relative stereo)
VALUE: > 159

COMPOUND: C[C@H]1[C@@H](OC/C=C\CO)O[C@@H]2O[C@@]3(C)CC[C@H]4[C@H](C)CC[C@@H]1[C@@]24OO3
VALUE: > 1760

COMPOUND: C[C@H]1[C@@H](OCC(=O)CO)O[C@@H]2O[C@@]3(C)CC[C@H]4[C@H](C)CC[C@@H]1[C@@]24OO3
VALUE: > 1900

COMPOUND: C[C@@H]1CC[C@H]2[C@@H](C)C(=O)O[C@@H]3O[C@@]4(C)CC[C@@H]1[C@]32OO4
VALUE: > 40
